Hey, just so you know, these numbers are from ChEMBL document CHEMBL1177821.

- test.system: Thrombopoietin receptor (Homo sapiens)
- Sequence (P40238 whole entry): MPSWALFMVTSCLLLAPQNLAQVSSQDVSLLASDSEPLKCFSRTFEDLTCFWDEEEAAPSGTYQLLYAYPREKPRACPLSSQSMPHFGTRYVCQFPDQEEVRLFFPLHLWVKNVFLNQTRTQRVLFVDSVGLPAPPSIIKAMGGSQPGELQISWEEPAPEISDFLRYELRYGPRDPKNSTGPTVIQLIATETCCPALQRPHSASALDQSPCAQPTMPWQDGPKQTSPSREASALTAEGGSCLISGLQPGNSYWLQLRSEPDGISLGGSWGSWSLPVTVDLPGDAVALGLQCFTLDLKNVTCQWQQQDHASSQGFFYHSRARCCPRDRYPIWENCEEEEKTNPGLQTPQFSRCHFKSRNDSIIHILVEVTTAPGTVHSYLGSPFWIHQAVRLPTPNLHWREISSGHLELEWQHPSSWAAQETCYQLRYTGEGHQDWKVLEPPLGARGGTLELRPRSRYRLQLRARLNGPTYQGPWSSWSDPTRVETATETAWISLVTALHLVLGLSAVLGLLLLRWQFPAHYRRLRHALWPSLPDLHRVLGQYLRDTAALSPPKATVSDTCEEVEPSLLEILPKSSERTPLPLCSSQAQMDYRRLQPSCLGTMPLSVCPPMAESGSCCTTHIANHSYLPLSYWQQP
- measurement.protocol: Agonist activity at human TPO receptor expressed in murine BaF3 cells
Lab note: class by EC50, see b0: < 90 nM; b1: ≥ 90 nM and < 600 nM; b2: ≥ 600 nM

Prompt: Input CCOCc1cc(-c2nc(NC(=O)c3cnc(N4CCC(C(=O)O)CC4)c(Cl)c3)sc2F)ccc1F ; output its category
Response: b2

Prompt: Another molecule: O=C(Nc1nc(-c2ccc(F)c(C(F)(F)F)c2)cs1)c1cnc(N2CCC(C(=O)O)CC2)c(Cl)c1
Response: b1

Prompt: Another molecule: O=C(Nc1nc(-c2ccc(F)c(OCC(F)(F)F)c2)c(F)s1)c1cnc(N2CCC(C(=O)O)CC2)c(Cl)c1
Response: b2

Prompt: Another molecule: O=C(Nc1nc(-c2ccc(Cl)c(Cl)c2)c(F)s1)c1cnc(N2CCC(C(=O)O)CC2)c(Cl)c1
Response: b2

Prompt: Another molecule: Cc1sc(NC(=O)c2cnc(N3CCC(C(=O)O)CC3)c(Cl)c2)nc1-c1ccc(F)c(C(F)(F)F)c1
Response: b0

Prompt: Another molecule: O=C(Nc1nc(-c2ccc(F)c(C(F)(F)F)c2)ns1)c1cnc(N2CCC(C(=O)O)CC2)c(Cl)c1
Response: b1

Prompt: Another molecule: CCc1sc(NC(=O)c2cnc(N3CCC(C(=O)O)CC3)c(Cl)c2)nc1-c1ccc(F)c(C(F)(F)F)c1
Response: b1

Prompt: Another molecule: N#Cc1sc(NC(=O)c2cnc(N3CCC(C(=O)O)CC3)c(Cl)c2)nc1-c1ccc(F)c(C(F)(F)F)c1
Response: b2

Prompt: Another molecule: O=C(Nc1nc(-c2cccc(C(F)(F)F)c2F)c(F)s1)c1cnc(N2CCC(C(=O)O)CC2)c(Cl)c1
Response: b2

Prompt: Another molecule: O=C(Nc1nc(-c2ccc(F)c(C(F)(F)F)c2)c(Cl)s1)c1cnc(N2CCC(C(=O)O)CC2)c(Cl)c1
Response: b0

Prompt: Another molecule: O=C(Nc1nc(-c2ccc(F)c(Cl)c2)c(F)s1)c1cnc(N2CCC(C(=O)O)CC2)c(Cl)c1
Response: b1

Prompt: Another molecule: CC(C)Cc1cc(-c2nc(NC(=O)c3cnc(N4CCC(C(=O)O)CC4)c(Cl)c3)sc2F)ccc1F
Response: b0

Prompt: Another molecule: O=C(Nc1ccn(-c2cccc(C(F)(F)F)c2F)n1)c1cnc(N2CCC(C(=O)O)CC2)c(Cl)c1
Response: b2
